test system: SNB-75 CNS; assay: NCI-60 one-dose screen, 48 h; details: 10 µM unless noted
The panel holds about 83,000 compounds, 20% with a hit somewhere; the sample as a whole holds those more often. Calls of active or inactive are those of the source. The calls were made as follows: active = growth percent below 10; inactive = the rest.
# valid calls are true for active, false for inactive; nothing else

C=C[Se]CC(=O)/C=C/c1ccccc1	false

# input Short answer needed: outcome of this test for `O=S(=O)(F)c1cccc(Cl)c1C[P+](c1ccccc1)(c1ccccc1)c1ccccc1` ?
# output false

# input Short answer needed: outcome of this test for `O=C(O)C(F)F` ?
# output false

# input Short answer needed: outcome of this test for `C[C@]12CC[C@@H](OC(=O)N(CCCl)N=O)C[C@@H]1CC[C@@H]1[C@@H]2CC[C@]2(C)C(=O)CC[C@@H]12` ?
# output false

# input Short answer needed: outcome of this test for `CC[C@H](CC[C@@H](C)[C@H]1CC[C@H]2[C@@H]3CC[C@H]4C[C@]5(CC[C@]4(C)[C@H]3CC[C@]12C)OO[C@](C)(C(F)(F)F)O5)C(C)C` ?
# output false

----------
system: 786-0 renal; assay: NCI-60 one-dose screen, 48 h (100 = growth as untreated, 0 = no growth, -100 = all killed); conditions: 10 µM unless noted
This is part of a sample that, as a whole, favours compounds with a hit. Of some 83,000 tested, about 20% had one in any assay.
Reported growth values for a set of compounds
Unit % implied. Number only.

Consider the following illustrative entries.
O=NN(c1ccccc1)c1ccccc1	105
O=[N+]([O-])c1ccc(OCc2ccc(S(=O)(=O)F)c(Cl)c2)c(Cl)c1	79.9
COc1cc(C2C3=C(CCCC3=O)N(CCO)c3cc4c(cc32)CCC4)cc(OC)c1OC (stereo not given)	84.6
CC1OC(=O)C(C(C)C)NC(=O)C(C(C)C)OC(=O)C(C(C)C)NC(=O)C(C)OC(=O)C(C(C)C)NC(=O)C(C(C)C)OC(=O)C(C(C)C)NC(=O)C(C)OC(=O)C(C(C)C)NC(=O)C(C(C)C)OC(=O)C(C(C)C)NC1=O (stereo not given)	-6.45

The compound `O=c1[nH]c(=O)[nH]c(=O)[nH]1` , when measured on 786-0 renal, yielded growth of 96.9

----------
system: OVCAR-4 ovarian; test: NCI-60 one-dose screen, 48 h; conditions: 10 µM unless noted
The panel holds about 83,000 compounds, 20% with a hit somewhere; the sample as a whole holds those more often. Active and inactive are the calls of the source. Rule for the calls: active = growth percent below 10; inactive = the rest.
# valid calls are class 1 for active, class 0 for inactive; nothing else

Example cases with answers are listed next.
O=[N+]([O-])c1c(Cl)cc(Cl)c([N+](=O)[O-])c1Cl	class 0
NC(=O)Oc1cc(OC(N)=O)cc(N(CCCl)CCCl)c1	class 0
C[C@]12CC[C@H]3[C@@H](C[C@@H]4SC(Nc5cccc(F)c5)=N[C@@]45CC(=O)CC[C@]35C)[C@@H]1CCC2=O	class 0
N#CCCc1ccccc1	class 0
c1ccc(CCN2CCCCC2)nc1	class 0
N#CCc1ccc(CC#N)cc1	class 0

# input Short answer needed: outcome of this test for `Cn1cc(C(=O)C[n+]2ccccc2)c2ccccc21` ?
# output class 0

# input Short answer needed: outcome of this test for `COc1ccc(N)cc1OC` ?
# output class 0

# input Short answer needed: outcome of this test for `CNC(=O)O/N=C(\SC)C(=O)N(C)C` ?
# output class 0

# input Short answer needed: outcome of this test for CCCN1C(=O)NC(=O)C(CC)(N2C(=O)c3c(F)c(F)c(F)c(F)c3C2=O)C1=O (stereo not drawn) ?
# output class 1

# input Short answer needed: outcome of this test for `CC(=O)c1cccc(S(=O)(=O)F)c1` ?
# output class 0

# input Short answer needed: outcome of this test for `COc1cc(-c2ccc(N)c(OC)c2)ccc1N` ?
# output class 0

# input Short answer needed: outcome of this test for `CC(=O)Cc1ccc2c(c1)OCO2` ?
# output class 0

Where these numbers come from: PubChem BioAssay (NCI)
